All figures here come from patent EP0604983B1.

Entries annotated with measured TG lowering ratio (%)
Tested on: KK-Ay male mice
test.name: Blood sugar and blood triglyceride (TG) lowering test in KK-Ay mice, test compound mixed with powder food
Format: in vivo
test.context: KK-Ay male mice; mixed with powder food for four days; Dose: c.a. 10 mg/kg/day; plasma triglyceride (glycerol enzyme method) on 5th day vs control group
Protocol: The effect of the compound of the present invention on reducing blood sugar and blood lipid levels based on the ability of improving insulin resistance has been determined by the following test. […] The blood sugar values were measured by withdrawing blood (20 µl) from animal's tail vein using a heparin-treated capillary, centrifuging the blood to obtain plasma, and measuring the glucose level in the plasma by the glucose-oxidase method. […]
reported.endpoint: TG lowering ratio (%)

[
  {
    "compound": "O=C1NC(=O)C(Cc2ccc3cc(OCc4ccccc4Cl)ccc3c2)S1 (stereo not shown)",
    "measured.target": "KK-Ay male mice",
    "reported.endpoint": "TG lowering ratio (%)",
    "quantitative.readout": 28.3
  },
  {
    "compound": "O=C1NC(=O)C(Cc2ccc3cc(OCc4ccccc4C(F)(F)F)ccc3c2)S1 (stereo not shown)",
    "measured.target": "KK-Ay male mice",
    "reported.endpoint": "TG lowering ratio (%)",
    "quantitative.readout": 37.2
  },
  {
    "compound": "CCc1ccc(CCOc2ccc(CC3SC(=O)NC3=O)cc2)nc1 (stereo not shown) [Pioglitazone, pioglitazone, reference compound]",
    "measured.target": "KK-Ay male mice",
    "reported.endpoint": "TG lowering ratio (%)",
    "quantitative.readout": -4.0
  },
  {
    "compound": "O=C1NC(=O)C(Cc2ccc3cc(OCc4ccc(Cl)cc4)ccc3c2)S1 (stereo not shown)",
    "measured.target": "KK-Ay male mice",
    "reported.endpoint": "TG lowering ratio (%)",
    "quantitative.readout": 9.4
  }
]
